valueKind: melting point

compound: C[C@@H]1NC(=O)C[C@]1(C)O
melting point: 169 to 173 °C

compound: O=C(O)CC(NS(=O)(=O)c1ccc2ccccc2c1)c1ccc2c(c1)OCO2 (stereo unspecified)
melting point: 173 to 175 °C

*Q* So what's the measured melting point for this one? O=C(Nc1cc(Cl)c(O)c(Cl)c1)c1ccc(O)cc1O
*A* 235 to 237 °C

*Q* So what's the measured melting point for this one? Cc1cc2c(cc1C(F)(F)F)N(Cc1ccc(C(=O)O)cc1)CCC[C@@H]2N(Cc1cc(C(F)(F)F)cc(C(F)(F)F)c1)c1nnn(C)n1
*A* 95 to 98 °C

*Q* So what's the measured melting point for this one? COC(=O)CC(=O)C=Cc1ccccc1
*A* 83 °C

*Q* So what's the measured melting point for this one? CCCn1c(=O)c2[nH]c(/C=C/c3ccc(OC)c(OC)c3)nc2n(CCC)c1=O
*A* 196 °C
